System: MDA-MB-468
Assay: Growth inhibition of human MDA-MB-468 cells after 48 hrs by sulforhodamine B assay
Assay type: functional
Settings: MDA-MB-468, 48 h
Criterion: LC50 strictly under 50 µM. Met: satisfied. Not met: not satisfied.

{"input smiles": "COc1cc(/C=C/c2cc(F)c3c(c2)C[C@@H]2C(C)(C)[C@H](O)CC[C@@]2(C)O3)cc(O)c1C/C=C(\\C)CCC=C(C)C", "class name": "satisfied"}
{"input smiles": "COc1cc(/C=C/c2cc3c(c(SC)c2)O[C@]2(C)CC[C@@H](O)C(C)(C)[C@H]2C3)cc(O)c1C/C=C(\\C)CCC=C(C)C", "class name": "not satisfied"}
{"input smiles": "COCOc1cc(/C=C/c2cc(C=O)c3c(c2)C[C@@H]2C(C)(C)[C@H](O)CC[C@@]2(C)O3)cc(OC)c1C/C=C(\\C)CCC=C(C)C", "class name": "not satisfied"}
{"input smiles": "COc1cc(/C=C/c2ccc3c(c2)C[C@@H]2C(C)(C)[C@H](O)CC[C@@]2(C)O3)cc(O)c1C/C=C(\\C)CCC=C(C)C", "class name": "not satisfied"}
{"input smiles": "COc1cc(/C=C/c2cc(O)c3c(c2)C[C@@H]2C(C)(C)[C@H](O)CC[C@@]2(C)O3)cc(O)c1C/C=C(\\C)CCC=C(C)C", "class name": "satisfied"}

* * *

System: UACC-62
Assay: Growth inhibition of human UACC62 cells after 48 hrs by sulforhodamine B assay
Format: functional
Conditions: UACC-62, 48 h, read-out: pTGI (converted)
// values below are reported TGI

{"input smiles": "COc1cc(/C=C/c2ccc3c(c2)C[C@@H]2C(C)(C)[C@H](O)CC[C@@]2(C)O3)cc(O)c1C/C=C(\\C)CCC=C(C)C", "TGI": "30.2 µM"}
{"input smiles": "COCOc1cc(/C=C/c2cc(CO)c3c(c2)C[C@@H]2C(C)(C)[C@H](O)CC[C@@]2(C)O3)cc(OC)c1C/C=C(\\C)CCC=C(C)C", "TGI": "10.7 µM"}
{"input smiles": "COc1cc(/C=C/c2cc(F)c3c(c2)C[C@@H]2C(C)(C)[C@H](O)CC[C@@]2(C)O3)cc(O)c1C/C=C(\\C)CCC=C(C)C", "TGI": "29.5 µM"}

* * *

// values below are reported LC50
Test system: UO-31
Assay: Growth inhibition of human UO31 cells after 48 hrs by sulforhodamine B assay
Assay type: functional
Conditions: UO-31, 48 h

{"input smiles": "COc1cc(/C=C/c2cc(F)c3c(c2)C[C@@H]2C(C)(C)[C@H](O)CC[C@@]2(C)O3)cc(O)c1C/C=C(\\C)CCC=C(C)C", "lt gt eq": "=", "LC50 (µM)": 27.5}
{"input smiles": "COCOc1cc(/C=C/c2cc(CO)c3c(c2)C[C@@H]2C(C)(C)[C@H](O)CC[C@@]2(C)O3)cc(OC)c1C/C=C(\\C)CCC=C(C)C", "lt gt eq": "=", "LC50 (µM)": 93.3}
{"input smiles": "COc1cc(/C=C/c2cc3c(c(SC)c2)O[C@]2(C)CC[C@@H](O)C(C)(C)[C@H]2C3)cc(O)c1C/C=C(\\C)CCC=C(C)C", "lt gt eq": ">", "LC50 (µM)": 100}
{"input smiles": "COc1cc(/C=C/c2cc(O)c3c(c2)C[C@@H]2C(C)(C)[C@H](O)CC[C@@]2(C)O3)cc(O)c1C/C=C(\\C)CCC=C(C)C", "lt gt eq": "=", "LC50 (µM)": 37.2}
{"input smiles": "COc1cc(/C=C/c2ccc3c(c2)C[C@@H]2C(C)(C)[C@H](O)CC[C@@]2(C)O3)cc(O)c1C/C=C(\\C)CCC=C(C)C", "lt gt eq": "=", "LC50 (µM)": 64.6}
{"input smiles": "COCOc1cc(/C=C/c2cc(C=O)c3c(c2)C[C@@H]2C(C)(C)[C@H](O)CC[C@@]2(C)O3)cc(OC)c1C/C=C(\\C)CCC=C(C)C", "lt gt eq": ">", "LC50 (µM)": 100}
{"input smiles": "COc1cc(/C=C/c2cc3c(c(OC)c2)O[C@]2(C)CC[C@@H](O)C(C)(C)[C@H]2C3)cc(O)c1C/C=C(\\C)CCC=C(C)C", "lt gt eq": "=", "LC50 (µM)": 21.9}
